test.system: Adenosine A2 receptor (Rattus norvegicus, UniProt P29276+P30543)
run.description: Tested for inhibition of rat PC12 adenylate cyclase stimulation by using NECA as a radioligand
Type: cell-based
test.settings: pc-12
Listing of recorded Ki by entry.
# answer = value followed by unit

Consider the following illustrative entries.
molecule: Cn1cnc2c(N)ncnc21
test.system: Adenosine A2 receptor (Rattus norvegicus, UniProt P29276+P30543)
Ki: 24 µM
//
molecule: Cn1cnc2c(NC3CCCC3)nc(Cl)nc21
test.system: Adenosine A2 receptor (Rattus norvegicus, UniProt P29276+P30543)
Ki: 6.3 µM
//
molecule: CC[C@H](Nc1nc(Cl)nc2c1ncn2C)c1ccccc1
test.system: Adenosine A2 receptor (Rattus norvegicus, UniProt P29276+P30543)
Ki: 17 µM
//
molecule: c1nc(NC2CCCC2)c2ncn(C3CCCO3)c2n1 (stereo not given)
test.system: Adenosine A2 receptor (Rattus norvegicus, UniProt P29276+P30543)
Ki: 30 µM
//
molecule: Nc1ncnc2c1ncn2CCO
test.system: Adenosine A2 receptor (Rattus norvegicus, UniProt P29276+P30543)
Ki: 12 µM

Query: # lookup: Ki of CC[C@@H](Nc1nc(Cl)nc2c1ncn2C)c1ccccc1
Reply: 4.3 µM

Query: # lookup: Ki of Nc1ncnc2c1ncn2C1CCCO1 (stereo not given)
Reply: 2.4 µM

Data origin: ChEMBL document CHEMBL1125213
